Cited source: ChEMBL document CHEMBL5257135

system: SK-MEL3; assay: Anticancer activity against human SK-MEL3 cells assessed as reduction in cell viability incubated for 24 hrs by MTT assay; assay type: functional, cell-based; conditions: SK-MEL3, 24 h
pIC50 listing for selected molecules.
Please report pIC50 as the negative decimal logarithm of the molar concentration, giving only the number.

Below: 2 molecules and their reported pIC50.
Please fill in: pIC50 reported for `C[C@H]1[C@H](OC(=O)CCC(=O)Oc2ccc3oc(=O)ccc3c2)O[C@@H]2C[C@]3(C)CC[C@H]4[C@H](C)CC[C@@H]1[C@@]24OO3` = 7.82

Please fill in: pIC50 reported for `C[C@H]1[C@H](OC(=O)CCC(=O)Oc2ccc3c(C(F)(F)F)cc(=O)oc3c2)O[C@@H]2C[C@]3(C)CC[C@H]4[C@H](C)CC[C@@H]1[C@@]24OO3` = 5.44

New cases:
Please fill in: pIC50 reported for `O=c1ccc2cc(O)c(O)cc2o1` = 5.77

Please fill in: pIC50 reported for `O=c1cc(C(F)(F)F)c2ccc(O)cc2o1` = 6.24
